System: 898857-211-R-J1-PDC complex spheroids, growth % test/control;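 also: spheroids exposed to compound for seven days before readout; 100% = DMSO vehicle control wells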
Test: Anticancer human tumor 898857-211-R-J1-PDC patient-derived melanoma cell line growth inhibition [RAS]; active = viability on the fitted dose curve at most 10% of control; inactive = the rest
Settings: second compound 3.16 µM; first compound 10 µM
Response enum: 1 (yes) for active, 0 (no) for inactive

[
  {
    "compound": "CC1(O)CCCC1n1c(=O)c(C(F)F)cc2cnc(NC3CCN(S(C)(=O)=O)CC3)nc21 (stereo not drawn) + C#Cc1c(F)ccc2cc(O)cc(-c3ncc4c(N5CC6CCC(C5)N6)nc(OCC56CCCN5CC(F)C6)nc4c3F)c12",
    "target.or.test.system": "898857-211-R-J1-PDC complex spheroids, growth % test/control",
    "discrete.label": "0 (no)"
  },
  {
    "compound": "CC(Nc1ccc2c(c1)OCCn1cc(N3C(=O)OCC3C(F)F)nc1-2)C(N)=O (stereo not drawn) + C#Cc1c(F)ccc2cc(O)cc(-c3ncc4c(N5CC6CCC(C5)N6)nc(OCC56CCCN5CC(F)C6)nc4c3F)c12",
    "target.or.test.system": "898857-211-R-J1-PDC complex spheroids, growth % test/control",
    "discrete.label": "0 (no)"
  },
  {
    "compound": "CC(C)NCC(C(=O)N1CCN(c2ncnc3c2C(C)CC3O)CC1)c1ccc(Cl)cc1 (stereo not drawn) + C#Cc1c(F)ccc2cc(O)cc(-c3ncc4c(N5CC6CCC(C5)N6)nc(OCC56CCCN5CC(F)C6)nc4c3F)c12",
    "target.or.test.system": "898857-211-R-J1-PDC complex spheroids, growth % test/control",
    "discrete.label": "0 (no)"
  },
  {
    "compound": "C[C@@H](NC(=O)c1ncnc(N)c1Cl)c1ncc(C(=O)Nc2cc(C(F)(F)F)c(Cl)cn2)s1 + C#Cc1c(F)ccc2cc(O)cc(-c3ncc4c(N5CC6CCC(C5)N6)nc(OCC56CCCN5CC(F)C6)nc4c3F)c12",
    "target.or.test.system": "898857-211-R-J1-PDC complex spheroids, growth % test/control",
    "discrete.label": "0 (no)"
  },
  {
    "compound": "CC(=O)OC12COC1CC(O)C1(C)C(=O)C(O)C3=C(C)C(OC(=O)C(O)C(NC(=O)OC(C)(C)C)c4ccccc4)CC(O)(C(OC(=O)c4ccccc4)C21)C3(C)C (stereo not drawn) + C#Cc1c(F)ccc2cc(O)cc(-c3ncc4c(N5CC6CCC(C5)N6)nc(OCC56CCCN5CC(F)C6)nc4c3F)c12",
    "target.or.test.system": "898857-211-R-J1-PDC complex spheroids, growth % test/control",
    "discrete.label": "0 (no)"
  },
  {
    "compound": "NC1c2ccccc2OC12CCN(c1cnc3c(N4CCCc5ncccc54)n[nH]c3n1)CC2 (stereo not drawn) + C#Cc1c(F)ccc2cc(O)cc(-c3ncc4c(N5CC6CCC(C5)N6)nc(OCC56CCCN5CC(F)C6)nc4c3F)c12",
    "target.or.test.system": "898857-211-R-J1-PDC complex spheroids, growth % test/control",
    "discrete.label": "0 (no)"
  },
  {
    "compound": "CCC(CC)c1cc(NC2CCC(N)C2)n2nccc2n1 (stereo not drawn) + C#Cc1c(F)ccc2cc(O)cc(-c3ncc4c(N5CC6CCC(C5)N6)nc(OCC56CCCN5CC(F)C6)nc4c3F)c12",
    "target.or.test.system": "898857-211-R-J1-PDC complex spheroids, growth % test/control",
    "discrete.label": "1 (yes)"
  }
]

Could you now look at the following compound, please?
Input: Returns: the outcome recorded for Cc1nc(N2CCC3(CC2)COC(C)C3N)c(CO)nc1Sc1ccnc(N)c1Cl (stereo not drawn) + C#Cc1c(F)ccc2cc(O)cc(-c3ncc4c(N5CC6CCC(C5)N6)nc(OCC56CCCN5CC(F)C6)nc4c3F)c12 in this assay.
Output: 0 (no)
